Sourced from ChEMBL document CHEMBL1908284

Biological target: UniProt P08183
Sequence (P08183 whole entry): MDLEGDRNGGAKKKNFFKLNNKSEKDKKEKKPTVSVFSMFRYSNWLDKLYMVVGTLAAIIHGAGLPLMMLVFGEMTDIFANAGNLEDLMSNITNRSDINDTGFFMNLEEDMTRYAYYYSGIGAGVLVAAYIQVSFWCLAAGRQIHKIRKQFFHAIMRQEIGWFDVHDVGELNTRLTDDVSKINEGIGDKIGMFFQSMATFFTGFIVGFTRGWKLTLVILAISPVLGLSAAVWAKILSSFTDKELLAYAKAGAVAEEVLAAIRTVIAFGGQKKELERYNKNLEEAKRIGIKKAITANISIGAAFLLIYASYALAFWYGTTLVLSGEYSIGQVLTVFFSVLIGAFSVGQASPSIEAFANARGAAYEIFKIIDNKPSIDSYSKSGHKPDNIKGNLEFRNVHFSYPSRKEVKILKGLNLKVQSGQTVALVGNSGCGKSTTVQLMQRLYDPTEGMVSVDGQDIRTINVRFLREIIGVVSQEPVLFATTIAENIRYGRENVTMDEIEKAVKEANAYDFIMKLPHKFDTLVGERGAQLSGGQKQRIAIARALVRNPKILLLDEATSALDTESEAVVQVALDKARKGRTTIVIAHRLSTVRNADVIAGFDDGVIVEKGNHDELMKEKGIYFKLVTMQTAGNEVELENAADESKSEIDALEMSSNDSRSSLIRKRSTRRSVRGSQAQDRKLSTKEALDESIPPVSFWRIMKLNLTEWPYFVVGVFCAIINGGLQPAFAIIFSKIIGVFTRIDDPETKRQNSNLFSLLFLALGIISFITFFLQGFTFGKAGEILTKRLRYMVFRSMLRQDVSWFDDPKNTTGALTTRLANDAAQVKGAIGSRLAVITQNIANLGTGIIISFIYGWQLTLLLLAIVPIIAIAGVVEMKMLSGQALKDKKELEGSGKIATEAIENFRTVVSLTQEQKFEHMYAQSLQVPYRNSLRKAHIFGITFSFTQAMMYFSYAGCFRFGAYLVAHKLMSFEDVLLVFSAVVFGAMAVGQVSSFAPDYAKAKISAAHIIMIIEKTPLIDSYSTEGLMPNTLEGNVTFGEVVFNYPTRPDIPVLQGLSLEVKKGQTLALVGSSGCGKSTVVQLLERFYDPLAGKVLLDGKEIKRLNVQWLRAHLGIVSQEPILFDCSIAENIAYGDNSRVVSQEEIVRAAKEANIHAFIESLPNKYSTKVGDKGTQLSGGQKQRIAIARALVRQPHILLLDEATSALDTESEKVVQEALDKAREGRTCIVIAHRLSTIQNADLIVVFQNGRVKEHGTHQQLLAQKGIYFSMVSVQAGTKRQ
Assay: in vitro
Conditions: dog, MDCK-MDR1, Papp
Description: Apparent permeability (Papp) from apical to basolateral side determined in MDR1-MDCKII cells
Criterion: Papp A→B strictly under 7 ×10⁻⁶ cm/s. Met: 1. Not met: 0.

Below are worked cases with known answers.
1. CC[C@]1(O)C[C@@H]2CN(CCc3c([nH]c4ccccc34)[C@@](C(=O)OC)(c3cc4c(cc3OC)N(C)[C@H]3[C@@](O)(C(=O)OC)[C@H](OC(C)=O)[C@]5(CC)C=CCN6CC[C@]43[C@@H]65)C2)C1 [VINBLASTINE] :: 1
2. COc1cc([C@@H]2c3cc4c(cc3[C@@H](O[C@@H]3O[C@@H]5CO[C@@H](C)O[C@H]5[C@H](O)[C@H]3O)[C@H]3COC(=O)[C@H]23)OCO4)cc(OC)c1O [ETOPOSIDE] :: 1
3. CC(C)(C)c1ccc(C(O)CCCN2CCC(C(O)(c3ccccc3)c3ccccc3)CC2)cc1 (stereo not drawn) [TERFENADINE] :: 1
4. CC(=O)O[C@H]1C(=O)[C@@]2(C)[C@H]([C@H](OC(=O)c3ccccc3)[C@]3(O)C[C@H](OC(=O)[C@H](O)[C@@H](NC(=O)c4ccccc4)c4ccccc4)C(C)=C1C3(C)C)[C@]1(OC(C)=O)CO[C@@H]1C[C@@H]2O [PACLITAXEL] :: 1
5. COc1ccc([C@@H]2Sc3ccccc3N(CCN(C)C)C(=O)[C@@H]2OC(C)=O)cc1 [DILTIAZEM] :: 0
6. COC(=O)C1=C(C)NC(C)=C(C(=O)OCCN(C)Cc2ccccc2)C1c1cccc([N+](=O)[O-])c1 (stereo not drawn) [NICARDIPINE] :: 0
7. COC(=O)[C@@H]1[C@H]2C[C@H]3c4[nH]c5ccccc5c4CCN3C[C@@H]2CC[C@@H]1O [YOHIMBINE] :: 0
8. CC[C@H]1C(=O)Nc2ccc(F)cc2N1C(=O)OC(C)C [OPAVIRALINE] :: 0

Lookup: Does `Nc1nc(N)c2nc(-c3ccccc3)c(N)nc2n1` have Papp A→B strictly under 7 ×10⁻⁶ cm/s?
Found: 0

Lookup: Entry `CC(C)(C)NC(=O)[C@@H]1C[C@@H]2CCCC[C@@H]2CN1C[C@@H](O)[C@H](Cc1ccccc1)NC(=O)[C@H](CC(N)=O)NC(=O)c1ccc2ccccc2n1` please
Found: 1

Lookup: Entry O=C1c2c(O)ccc(O)c2C(=O)c2c(NCCNCCO)ccc(NCCNCCO)c21 [MITOXANTRONE] please
Found: 1

Lookup: Entry OC[C@@H](O)[C@@H](O)[C@H](O)[C@H](O)CO [MANNITOL] please
Found: 1
